Assay: qHTS profiling of the MIPE4 collection as inhibitors of Plasmodium falciparum (DD2) proliferation (Rep 2) (AID 743346)
Conditions: P. falciparum Dd2 in erythrocytes, SYBR Green DNA, 72 h; at 28.5 µM unless noted
Metric name: parasite growth, % of control (lower = inhibition) (%)
Numbers only, in %.

State the recorded parasite growth, % of control (lower = inhibition) for this entry: C[C@@H]1CN(Cc2ccc(F)cc2)[C@@H](C)CN1C(=O)c1cc2c(C(=O)C(=O)N(C)C)cn(C)c2cc1Cl
48.6

// query parasite growth, % of control (lower = inhibition) value for entry CN[C@@H](C)C(=O)N[C@H]1CCCC[C@H]2CC[C@@H](C(=O)N[C@@H](c3ccccc3)c3cn(CCCCc4ccc(CCCCn5cc([C@@H](NC(=O)[C@@H]6CC[C@@H]7CCCC[C@H](NC(=O)[C@H](C)NC)C(=O)N76)c6ccccc6)nn5)cc4)nn3)N2C1=O
9.02

I'd like to know its parasite growth, % of control (lower = inhibition). The compound in question is COc1ccc(-c2oc3cc(OC)ccc3c2C(=O)c2ccc(C#N)cc2)cc1
14.8

For every listed record, write down its parasite growth, % of control (lower = inhibition).
1. Nc1cccc(S(=O)(=O)N2CCCN(S(=O)(=O)c3ccc4c(c3)OCCO4)CC2)c1
2. CCOc1cc(N2CCC(O)CC2)ccc1Nc1ncc2c(n1)N(C)c1ccccc1C(=O)N2C

120
5.98

###

Test system: GB4
Assay: qHTS profiling for inhibitors of Plasmodium falciparum proliferation (AID 504749); further: nearly all actives have a fitted effect of over 60% in size
Settings: P. falciparum in erythrocytes, SYBR Green DNA, 72 h; series mostly up to 28.7 µM
Inconclusive results are not listed. The source made the active and inactive calls. Calls come from the whole dose curve; as a rule, active = well fitted inhibition curve with a large enough effect; inconclusive = small, poorly fitted or top-dose-only effect; inactive = flat fitted curve, though single readings scatter.
Your response should consist of one outcome taken from YES (active), NO (inactive)

Example results:
GET /call?item= NC[C@H](O)c1ccc(O)c(O)c1 returns the recorded outcome of this test.
NO

Each compound tested received a call. Report the one for OC(CN1CCC(Cc2ccc(F)cc2)CC1)c1ccc(Cl)cc1 (configuration not stated) .
YES

Test call, this compound: Nc1nc2ccc(OC(F)(F)F)cc2s1
NO

Next:
Field: outcome | Entry: O=C1CCC(N2C(=O)c3ccccc3C2=O)C(=O)N1 (configuration not stated)
NO

I would be grateful if you could indicate the recorded call for Nc1nc2c(ncn2COCCO)c(=O)[nH]1 .
NO

Recorded call for O=c1n(CCCN2CCN(c3cccc(Cl)c3)CC2)nc2ccccn12 ?
NO

# fetch the recorded call for Cc1[nH]c(=O)c(C#N)cc1-c1ccc2nccn2c1 here
NO

###

Experiment: qHTS profiling of the MIPE4 collection as inhibitors of Plasmodium falciparum (DD2) proliferation (Rep 2) (AID 743346)
Settings: P. falciparum Dd2 in erythrocytes, SYBR Green DNA, 72 h; at 28.5 µM unless noted
Description: Plasmodium falciparum is a virulent malarial parasite that kills 1-2 million people worldwide each year. […] Because mature erythrocytes lack DNA, only Plasmodium-derived DNA is detected. The SYBR Green viability assay was adapted from a method described previously (Plouffe et al., 2008). […] The following morning, fluorescence intensity at 485(14) nm excitation and 535(25) nm emission wavelengths was measured on an EnVision (Perkin Elmer) plate reader. […]
Response field label takes t when parasite growth, % of control (lower = inhibition) is strictly below 70% and f in all other cases.

Quick check: parasite growth, % of control (lower = inhibition) of O=C(O)COCCN1CCN(C(c2ccccc2)c2ccc(Cl)cc2)CC1 (stereo unspecified) under 70%?
f

Record CC(C)OC(=O)C1=CN(C(=O)c2ccc(F)c(F)c2)CC(C)(C)c2c1[nH]c1ccccc21 : is its parasite growth, % of control (lower = inhibition) strictly below 70%?
t

Please let me know if CCn1c(-c2nonc2N)nc2cnc(Oc3cccc(NC(=O)c4ccc(OCCN5CCOCC5)cc4)c3)cc21 shows parasite growth, % of control (lower = inhibition) below 70%.
t

Dear reviewer, please state whether Cc1cc(Nc2nc(N[C@@H](C)c3ncc(F)cn3)ncc2Cl)n[nH]1 has parasite growth, % of control (lower = inhibition) strictly beneath 70%.
t

# check: parasite growth, % of control (lower = inhibition) < 70% for CC(C)C[C@H](NC(=O)[C@@H](O)[C@H](N)Cc1ccccc1)C(=O)O
t

Next:
Is 70% strictly greater than the compound's reported parasite growth, % of control (lower = inhibition)? compound: CCCCNc1cc(C(=O)O)cc(S(N)(=O)=O)c1Oc1ccccc1
f

parasite growth, % of control (lower = inhibition) under 70%? Item: CCn1c(-c2nonc2N)nc2c(C#CC(C)(C)O)ncc(OC[C@H]3CCCNC3)c21
t

Consider the compound CCCCCCCc1ccc(CCc2cccc(O)c2C(=O)O)cc1 . Is its parasite growth, % of control (lower = inhibition) strictly less than 70%?
t

Item NC(=O)c1ccc(-c2nc(-c3ccc4c(c3)OCO4)c(-c3ccccn3)[nH]2)cc1 : parasite growth, % of control (lower = inhibition) beneath 70%, strictly?
t

Bench note: check whether COc1ccc(COc2cc3oc(=O)c4cc(C(C)O)ccc4c3cc2OC)cc1 (stereo unspecified) shows parasite growth, % of control (lower = inhibition) below 70%
t

Would you kindly verify if parasite growth, % of control (lower = inhibition) of COc1ccccc1[C@H](c1cccc2ccccc12)[C@@](C)(C#N)C(=O)N1CCC(c2cccc(C(F)(F)F)c2)CC1 is strictly less than 70%?
t

###

Assay: Quantitative High-Throughput drug screen in 47 multiple myeloma cell lines against the NCATS MIPE library collection: KMS34_JCRB cell viability assay (AID 1918985); further: nearly all actives have a fitted effect of over 40% in size
Conditions: KMS34 myeloma viability, CellTiter-Glo ATP luminescence, 48 h; series mostly up to 45.8 µM
Inconclusive results are not listed. Activity calls are given as the source filed them. Calls come from the whole dose curve; as a rule, active = well fitted cell-killing curve with a large enough effect; inconclusive = small, poorly fitted or top-dose-only effect, or effect the other way; inactive = no such curve, though single readings can be large or run the other way.
The reply should name one outcome from active, inactive

Recorded call for CCOc1ccc(Cc2cc([C@@H]3O[C@H](CO)[C@@H](O)[C@H](O)[C@@H]3O)ccc2Cl)cc1 ?
inactive

Given NC[C@H](O)c1ccc(O)c(O)c1 , state the outcome it received in this test.
inactive

Look up the recorded call for Nc1nc2c(ncn2COCCO)c(=O)[nH]1 in this test.
inactive

# outcome recorded in this test, key = C[C@]12CC[C@H](O)CC1=CC[C@@H]1[C@H]2CC[C@]2(C)C(c3cccnc3)=CC[C@H]12
inactive

# ---- query molecule ----
What outcome does the record of this test show for CCOc1cc(N2CCC(O)CC2)ccc1Nc1ncc2c(n1)N(C)c1ccccc1C(=O)N2C ?
active

###

Experiment: Quantitative High-Throughput drug screen in 47 multiple myeloma cell lines against the NCATS MIPE library collection: KMS28BM_JCRB cell viability assay (AID 1919874); further: nearly all actives have a fitted effect of over 35% in size
Conditions: CellTiter-Glo ATP, 48 h; series mostly up to 45.8 µM
Records with an inconclusive call do not appear. Active and inactive are the calls of the source. Calls follow the shape of the dose curve; as a rule, active = well fitted cell-killing curve with a large enough effect; inconclusive = small, poorly fitted or top-dose-only effect, or effect the other way; inactive = no such curve, though single readings can be large or run the other way.
Please state which outcome applies, choosing from active, inactive

Known results for compounds:
Assay result, entry Cc1cc2c(C(C)C)c(O)c(O)c(C=O)c2c(O)c1-c1c(C)cc2c(C(C)C)c(O)c(O)c(C=O)c2c1O — outcome?
active

Call for entry COc1cccc2cc(-c3nc(C4CCC(C(=O)O)CC4)n4ncnc(N)c34)[nH]c12 (stereo unspecified) :
active

Identify the outcome logged in this assay for the compound shown: Nc1nc2[nH]cc(CCc3ccc(C(=O)N[C@@H](CCC(=O)O)C(=O)O)cc3)c2c(=O)[nH]1
inactive

Outcome? Cc1c(CN2CCN(C(=O)C(C)C)CC2)sc2c(N3CCOCC3)nc(-c3cnc(N)nc3)nc12
active

Please share the test call associated with N=c1nc(N2CCCCC2)cc(N)n1O .
inactive

Can you look up the reported call for Cc1ccccc1C(C(=O)NC1CCCC1)N(C(=O)Cn1cnc2ccccc21)c1cccc(F)c1 (stereo unspecified) for me?
inactive

Check the results log: what was the call for O=C(NOC[C@H](O)CO)c1ccc(F)c(F)c1Nc1ccc(I)cc1F ?
inactive

# fetch the recorded call for O=C(c1cc(Cc2n[nH]c(=O)c3ccccc23)ccc1F)N1CCN(C(=O)C2CC2)CC1 here
inactive

New cases:
Please let me know the test result on file for CCC(=O)N[C@H]1CC[C@H](C(=O)N(C)c2ccc(-c3nc4ccccc4o3)cc2)C1 .
active

I would be grateful if you could indicate the recorded call for CCN(CC)CCCC(C)Nc1nc(C)cc(Nc2ccc3nc(C)cc(N)c3c2)n1 (stereo unspecified) .
inactive

Record lookup: outcome of this test for c1ccc([C@H]2CN3CCSC3=N2)cc1 ?
inactive

Hello, I am checking results. What call was entered for Cc1cnc(NC(=O)C2=C(O)c3ccccc3S(=O)(=O)N2C)s1 ?
inactive

Write down the call the test reported for this compound. Item: Cn1cnc([N+](=O)[O-])c1Sc1ncnc2nc[nH]c12
active

Write down the call the test reported for this compound. Item: Cc1csc(NC(=O)c2sc3nc4c(c(C(F)(F)F)c3c2N)CCC4)n1
active

Please indicate how the test categorized COc1ccc(CCN2CCN(CCCc3ccccc3)CC2)cc1OC .
active

Reference source for all entries: PubChem BioAssay (NCATS)
